# assay name: protein stability index of a GFP-peptide fusion (yeast GPS) (PSI 1-4); higher = more stable; sorted into four equal gates, so the index is relative within each strain
# condition: doa10∆
attribute measured: protein stability index
# print the numeric value only

Sample answers from the record:
sequence_text="RKFKSRRCDDMLYYIQN [POP4]" attribute_measured="protein stability index" obs_value=2.74
sequence_text="DQLLTDLIETSFTCFAQ [NUT1]" attribute_measured="protein stability index" obs_value=2.56
sequence_text="RVKDIHLRKLLDGELDF [RET1]" attribute_measured="protein stability index" obs_value=2.87
sequence_text="ERAAQKLRLDQLVIQQG [ISW2]" attribute_measured="protein stability index" obs_value=2.49
sequence_text="NQTNINSLAVRGKDCTV [SCL1]" attribute_measured="protein stability index" obs_value=2.83
sequence_text="GKKLTDEINTAQDKWHL [RET1]" attribute_measured="protein stability index" obs_value=3.22
sequence_text="SKSENPVLSTIAFLVGL [SWI3]" attribute_measured="protein stability index" obs_value=3.01
sequence_text="AELDLMSGILHCEDKDY [RPN6]" attribute_measured="protein stability index" obs_value=2.9
sequence_text="NSLFYLKWSACTSLMDI [IRR1]" attribute_measured="protein stability index" obs_value=1.68
sequence_text="LIEKVDDTAANNGDKDH [YIL149C/MLP2]" attribute_measured="protein stability index" obs_value=3.09

Exercise: Query protein stability index for ELISFKERTKSLEHELK [YIL149C/MLP2]
Key: 2.24

Exercise: Query protein stability index for PENITKREASRGFFDIL [MCD1]
Key: 3.1

Exercise: Query protein stability index for LAPARVRRRFARGMTSK [RPS15]
Key: 2.99

Exercise: Query protein stability index for PMETLLSGLSADKPFTR [YML031W/NDC1]
Key: 2.91

Exercise: Query protein stability index for QLAQIRQFLKANKTNLI [YML103C/NUP188]
Key: 2.65

Exercise: Query protein stability index for NRKVRAGRGFTLAEVKA [RPL13A]
Key: 2.84
